Reported apparent Kd (screen) values follow for various binders
test-target: T1, TNFR1 (Homo sapiens, UniProt P19438)
T1 chain: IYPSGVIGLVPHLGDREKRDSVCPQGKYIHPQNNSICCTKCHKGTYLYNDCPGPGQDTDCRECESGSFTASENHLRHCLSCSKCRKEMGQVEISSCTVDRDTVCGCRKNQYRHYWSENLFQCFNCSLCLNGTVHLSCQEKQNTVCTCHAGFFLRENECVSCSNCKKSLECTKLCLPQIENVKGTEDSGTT
assay-summary: yeast display SC50
measured-endpoint: apparent Kd (screen) (nM)

INSERT INTO measurements (binder, numeric_result) VALUES
  ('K27S (designed binder) SMEEEVEKAAKEYEKKKKEAIEKHLESLKAKDKEAAERFLKELEEAAKEYAKDEAKTMSEEEAKRRAKKYKEKVLLSELSEEEQKEIKEAEEKLVRTILKYVEEAAK', 0.869),
  ('E3M (designed binder) SMMEEVEKAAKEYEKKKKEAIEKHLEKLKAKDKEAAERFLKELEEAAKEYAKDEAKTMSEEEAKRRAKKYKEKVLLSELSEEEQKEIKEAEEKLVRTILKYVEEAAK', 10.4),
  ('K31F (designed binder) SMEEEVEKAAKEYEKKKKEAIEKHLEKLKAFDKEAAERFLKELEEAAKEYAKDEAKTMSEEEAKRRAKKYKEKVLLSELSEEEQKEIKEAEEKLVRTILKYVEEAAK', 0.446),
  ('E49V (designed binder) SMEEEVEKAAKEYEKKKKEAIEKHLEKLKAKDKEAAERFLKELEEAAKVYAKDEAKTMSEEEAKRRAKKYKEKVLLSELSEEEQKEIKEAEEKLVRTILKYVEEAAK', 10.4),
  ('E54Y (designed binder) SMEEEVEKAAKEYEKKKKEAIEKHLEKLKAKDKEAAERFLKELEEAAKEYAKDYAKTMSEEEAKRRAKKYKEKVLLSELSEEEQKEIKEAEEKLVRTILKYVEEAAK', 7.78),
  ('L79G (designed binder) SMEEEVEKAAKEYEKKKKEAIEKHLEKLKAKDKEAAERFLKELEEAAKEYAKDEAKTMSEEEAKRRAKKYKEKVLLSEGSEEEQKEIKEAEEKLVRTILKYVEEAAK', 2.48),
  ('T57F (designed binder) SMEEEVEKAAKEYEKKKKEAIEKHLEKLKAKDKEAAERFLKELEEAAKEYAKDEAKFMSEEEAKRRAKKYKEKVLLSELSEEEQKEIKEAEEKLVRTILKYVEEAAK', 0.0729),
  ('Q84V (designed binder) SMEEEVEKAAKEYEKKKKEAIEKHLEKLKAKDKEAAERFLKELEEAAKEYAKDEAKTMSEEEAKRRAKKYKEKVLLSELSEEEVKEIKEAEEKLVRTILKYVEEAAK', 3);

Sourced from paper PMC12416549
